tested on: MCF7 breast; test: NCI tumour cell line growth inhibition, 48 h
I'd appreciate it if you could supply TGI values for the items below.
Only the number, expressed in µM, is required.

For record O=C1C(Cl)C(c2cc3cc(Br)ccc3nc2Cl)N1c1c(Cl)cccc1Cl (stereo not given) the listed TGI is 22.6

For record C=C1C(=O)OC2CC3(C)CCCC(C)C3=CC12 (stereo not given) the listed TGI is 5.28

For record CSc1ccc(C2=NN(C(C)=O)C(c3ccc(F)cc3)C2)cc1 (stereo not given) the listed TGI is 41.3

----------
I'd appreciate it if you could supply log10 TGI values for the items below.
test system: DMS 114 small cell lung; assay: NCI tumour cell line growth inhibition, 48 h
// units: µM (pre-log); metric: TGI; scale: log10

Tested on DMS 114 small cell lung, the item CCC(C)C1NC(=O)CNC(=O)C2Cc3c([nH]c4cc(O)ccc34)S(=O)CC(NC(=O)CNC1=O)C(=O)NC(CC(=O)O)C(=O)N1CC(O)CC1C(=O)NC(C(C)C(O)CO)C(=O)N2 (stereo not given) showed log10 TGI equal to 0.58

Tested on DMS 114 small cell lung, the item CCOC(=O)C1SC(=Nc2ccc(Cl)cc2C)N=C1C (stereo not given) showed log10 TGI equal to 1.55

Tested on DMS 114 small cell lung, the item O=C1[C@H](Cl)[C@H]2c3cc4ccccc4nc3Oc3ccccc3N12 showed log10 TGI equal to 1.85

Tested on DMS 114 small cell lung, the item C=C1C(=O)OC2C1C(OC(=O)/C(C)=C\C)CC1(CO1)C1C(O)C=C(C)C21O (stereo not given) showed log10 TGI equal to 1.31

Tested on DMS 114 small cell lung, the item CN(C)CCNC(=O)c1cccc2ncc(-c3ccccc3)nc12 showed log10 TGI equal to 1.42

Tested on DMS 114 small cell lung, the item COc1cc2c(cc1OC)c1c(OC)c(OC)cc3c1c1c2sc(=S)n1CC3 showed log10 TGI equal to 1.99

Tested on DMS 114 small cell lung, the item O=C(O)CCSC(=S)Nc1cccc(F)c1 showed log10 TGI equal to 1.71

----------
I'd appreciate it if you could supply TGI values for the items below.
test system: HS 578T breast; assay: NCI tumour cell line growth inhibition, 48 h

Tested on HS 578T breast, the item CO[C@@H]1[C@H]2[C@@H](C)c3ccoc3C[C@@H]2[C@@]2(C)CC[C@H](OC(=O)c3ccccc3)[C@](C)(C(=O)O)[C@]2(O)[C@@H]1OC(=O)c1ccccc1 showed TGI equal to > 50 µM

Tested on HS 578T breast, the item CC(C)(C)NC/C(=C\c1ccccc1)C(=O)c1ccccc1 showed TGI equal to 60.7 µM

Tested on HS 578T breast, the item CCOC(=O)c1cc(-c2ccc(OC)c(OC)c2)[nH]c1N/N=C/c1c(Cl)cccc1Cl showed TGI equal to 18.8 µM

Tested on HS 578T breast, the item O=C(NNC(=S)Nc1ccccc1)c1ccccn1 showed TGI equal to > 100 µM

Tested on HS 578T breast, the item CCN(CC)C(=S)SS(=O)(=O)c1ccccc1[N+](=O)[O-] showed TGI equal to > 88.7 µM

----------
I'd appreciate it if you could supply TGI values for the items below.
tested on: HOP-62 NSCLC; test: NCI tumour cell line growth inhibition, 48 h

For record CCN(CC)CC(C)(C)C(=O)/C=C/c1ccc(/C=C/C(=O)C(C)(C)CN(CC)CC)cc1 the listed TGI is 5.01 µM

For record NC(N)=NS(=O)(=O)c1ccc(NC(=O)c2ccc3[nH]c4ccccc4c(=O)c3c2)cc1 the listed TGI is > 100 µM

For record COc1ccc(C[C@H](N)C(=O)N2C[C@@H](CO)C[C@@H](n3cnc4c(N(C)C)ncnc43)C2)cc1 the listed TGI is > 100 µM

For record CC(CCCC1SCC2NC(=O)NC21)C(=O)O (stereo not given) the listed TGI is > 100 µM

For record [O-][n+]1c(-c2ccccc2)c2nc3ccccc3nc2c2ccccc21 the listed TGI is > 100 µM

----------
tested on: ACHN renal; experiment: NCI tumour cell line growth inhibition, 48 h; in the data active = GI50 below about 0.43 µM; inactive = the rest
Select the matching outcome among label 1 for active, label 0 for inactive

Fill in: this test's call for CCOC(=O)c1cc(-c2ccc(OC)c(OC)c2)[nH]c1N/N=C/c1c(Cl)cccc1Cl is ___ label 0

Fill in: this test's call for O=C(Nc1cccc(Cl)c1)c1cc(N=Nc2ccc([N+](=O)[O-])cc2Cl)ccc1O is ___ label 0

Fill in: this test's call for CC(C)CCC(=O)[C@@H](C)[C@H]1[C@@H](OC2OCC(O)C(O)C2NS(C)(=O)=O)C[C@H]2[C@@H]3CC=C4C[C@@H](O)CC[C@]4(C)[C@H]3CC[C@]12C (some centres not stated) is ___ label 0

Fill in: this test's call for CCCN1C(=O)/C(=C/c2ccc(O)cc2)SC1=Nc1ccc(OC)cc1 is ___ label 0

Fill in: this test's call for O=C(NNC(=S)Nc1ccccc1)c1ccccn1 is ___ label 0

Fill in: this test's call for CC(C)(C)NC/C(=C\c1ccccc1)C(=O)c1ccccc1 is ___ label 0

Fill in: this test's call for O=C(Nc1cccnc1)c1ccc2ccc3ccc(C(=O)Nc4cccnc4)nc3c2n1 is ___ label 1

----------
test system: DU-145 prostate; assay: NCI tumour cell line growth inhibition, 48 h
measurement.label: GI50

For record Cc1ccc(C2CC(c3cccc(Nc4ccncc4)c3)=NN2c2ccccc2)cc1 (centres undefined) the listed GI50 is 1.89 µM

For record COc1cc2ncn(-c3cc(OCc4ccccc4C(F)(F)F)c(C(C)=O)s3)c2cc1OC the listed GI50 is > 25 µM

For record CO[C@@H]1[C@H]2[C@@H](C)c3ccoc3C[C@@H]2[C@@]2(C)CC[C@H](OC(=O)c3ccccc3)[C@](C)(C(=O)O)[C@]2(O)[C@@H]1OC(=O)c1ccccc1 the listed GI50 is 12.1 µM

For record O=C(Nc1ccc2c(c1)OCO2)C(=O)c1c[nH]c2cc(F)ccc12 the listed GI50 is 3.52 µM

----------
test system: SK-MEL-2 melanoma; assay: NCI tumour cell line growth inhibition, 48 h
measurement.label: TGI

For record Oc1cc(CN2COc3ccccc32)c(O)cc1CNC1CCCCC1 the listed TGI is 50 µM

For record COc1ccc(C[C@H](N)C(=O)N2C[C@@H](CO)C[C@@H](n3cnc4c(N(C)C)ncnc43)C2)cc1 the listed TGI is > 100 µM

For record COc1ncnc2c1cnn2Cc1cn(CCCCO)nn1 the listed TGI is > 100 µM

For record N#Cc1c(N)nc(N2CCSCC2)c(C#N)c1-c1ccc(O)cc1 the listed TGI is > 100 µM

For record CC(=O)ON(C(C)=O)C1C(COC(c2ccccc2)(c2ccccc2)c2ccccc2)OC2OC3(CCCC3)OC21 (stereo unspecified) the listed TGI is > 100 µM

For record COC(=O)[C@@H]1Cc2cc(O)c(O)cc2C2(CCN(C)CC2)O1 the listed TGI is > 10 µM

For record COC(=O)c1c2c(cc3c1CC1(Cc4cc5c(cc4C1)CCC5)C3)CCC2 the listed TGI is > 100 µM

For record COc1ccc(CNc2cnc3cc(N)cc(N)c3n2)cc1 the listed TGI is 76.3 µM

For record CC[C@@H](/C=C\CCC1(C[C@@H](N)CCC=C(C)C)OCCO1)O[Si](C(C)C)(C(C)C)C(C)C the listed TGI is 31.7 µM

For record CC1CCc2c(c(CC3CC(=O)NC(=O)C3)nn2-c2ccccc2)C1 (stereo unspecified) the listed TGI is > 100 µM

For record CN(C)Cc1cc(N=Nc2ccc(Cl)cc2)ccc1O the listed TGI is 38.1 µM

For record COC(=O)c1ccc2c(c1)c1c(C)c3ccncc3c(C)c1n2C the listed TGI is 31.6 µM

For record OC1CCC[C@@H]1Sc1ccccc1 (stereo partly specified) the listed TGI is > 100 µM

For record CC1OC(O[C@H]2CC[C@]3(C=O)[C@H]4CC[C@]5(C)[C@H](C6=CC(=O)OC6)CC[C@]5(O)[C@@H]4C=C[C@]3(O)C2)CC(O)C1O (stereo partly specified) the listed TGI is 1.14 µM

For record COc1cc2ncn(-c3cc(OCc4ccccc4C(F)(F)F)c(C(C)=O)s3)c2cc1OC the listed TGI is > 25 µM

For record CC(=O)Oc1c2oc3cc(O)c(O)cc3c2c(OC(C)=O)c2oc3cc(O)c(O)cc3c12 the listed TGI is 42.1 µM

For record O=C1C(Cl)=C(N2CCN(c3ccccn3)CC2)C(=O)c2ncccc21 the listed TGI is 4.02 µM

For record COc1ccc(CNC(=O)[C@H](Cc2ccc(O)cn2)NC(C)=O)cc1 the listed TGI is > 100 µM

For record CCOC(=O)N1[C@@H]2CCC[C@@H]2C(=O)[C@@H]2CCC[C@@H]21 the listed TGI is > 100 µM

For record COC(=O)c1cc(C)n(CN(Cc2ccccc2)Cn2nc(C(=O)OC)cc2C)n1 the listed TGI is > 100 µM

For record CC1(C)CN=C(Nc2ccc(F)c(F)c2)S1 the listed TGI is > 100 µM
